system-name: GSPT1 (Homo sapiens, UniProt P15170+Q96SW2)
Sequence (P15170 whole entry): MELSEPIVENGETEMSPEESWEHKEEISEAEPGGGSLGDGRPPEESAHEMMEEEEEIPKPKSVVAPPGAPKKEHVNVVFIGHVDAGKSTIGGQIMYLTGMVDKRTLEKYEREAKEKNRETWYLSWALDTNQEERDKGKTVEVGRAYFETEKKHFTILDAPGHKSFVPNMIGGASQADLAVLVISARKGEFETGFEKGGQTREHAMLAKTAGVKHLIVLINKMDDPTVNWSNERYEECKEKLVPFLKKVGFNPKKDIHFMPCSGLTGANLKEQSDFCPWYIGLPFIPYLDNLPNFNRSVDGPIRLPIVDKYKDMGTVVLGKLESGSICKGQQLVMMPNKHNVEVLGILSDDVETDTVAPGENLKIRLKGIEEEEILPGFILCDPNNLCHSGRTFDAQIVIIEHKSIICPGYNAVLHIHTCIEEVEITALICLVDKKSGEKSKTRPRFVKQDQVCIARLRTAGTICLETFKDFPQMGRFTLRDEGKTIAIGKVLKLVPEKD
Sequence (Q96SW2 whole entry): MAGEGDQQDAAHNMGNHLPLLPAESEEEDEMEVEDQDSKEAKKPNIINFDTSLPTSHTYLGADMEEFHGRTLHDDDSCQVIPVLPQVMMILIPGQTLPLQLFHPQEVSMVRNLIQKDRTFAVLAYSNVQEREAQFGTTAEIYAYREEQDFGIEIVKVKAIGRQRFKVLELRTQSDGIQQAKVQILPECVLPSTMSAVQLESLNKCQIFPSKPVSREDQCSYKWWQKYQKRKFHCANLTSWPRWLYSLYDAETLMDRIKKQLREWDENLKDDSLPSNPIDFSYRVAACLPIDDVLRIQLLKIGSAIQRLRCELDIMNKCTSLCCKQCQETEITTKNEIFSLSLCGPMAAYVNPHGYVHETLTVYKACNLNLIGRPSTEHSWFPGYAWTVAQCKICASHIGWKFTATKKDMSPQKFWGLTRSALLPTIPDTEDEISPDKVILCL
Sequence (Q16531 whole entry partner): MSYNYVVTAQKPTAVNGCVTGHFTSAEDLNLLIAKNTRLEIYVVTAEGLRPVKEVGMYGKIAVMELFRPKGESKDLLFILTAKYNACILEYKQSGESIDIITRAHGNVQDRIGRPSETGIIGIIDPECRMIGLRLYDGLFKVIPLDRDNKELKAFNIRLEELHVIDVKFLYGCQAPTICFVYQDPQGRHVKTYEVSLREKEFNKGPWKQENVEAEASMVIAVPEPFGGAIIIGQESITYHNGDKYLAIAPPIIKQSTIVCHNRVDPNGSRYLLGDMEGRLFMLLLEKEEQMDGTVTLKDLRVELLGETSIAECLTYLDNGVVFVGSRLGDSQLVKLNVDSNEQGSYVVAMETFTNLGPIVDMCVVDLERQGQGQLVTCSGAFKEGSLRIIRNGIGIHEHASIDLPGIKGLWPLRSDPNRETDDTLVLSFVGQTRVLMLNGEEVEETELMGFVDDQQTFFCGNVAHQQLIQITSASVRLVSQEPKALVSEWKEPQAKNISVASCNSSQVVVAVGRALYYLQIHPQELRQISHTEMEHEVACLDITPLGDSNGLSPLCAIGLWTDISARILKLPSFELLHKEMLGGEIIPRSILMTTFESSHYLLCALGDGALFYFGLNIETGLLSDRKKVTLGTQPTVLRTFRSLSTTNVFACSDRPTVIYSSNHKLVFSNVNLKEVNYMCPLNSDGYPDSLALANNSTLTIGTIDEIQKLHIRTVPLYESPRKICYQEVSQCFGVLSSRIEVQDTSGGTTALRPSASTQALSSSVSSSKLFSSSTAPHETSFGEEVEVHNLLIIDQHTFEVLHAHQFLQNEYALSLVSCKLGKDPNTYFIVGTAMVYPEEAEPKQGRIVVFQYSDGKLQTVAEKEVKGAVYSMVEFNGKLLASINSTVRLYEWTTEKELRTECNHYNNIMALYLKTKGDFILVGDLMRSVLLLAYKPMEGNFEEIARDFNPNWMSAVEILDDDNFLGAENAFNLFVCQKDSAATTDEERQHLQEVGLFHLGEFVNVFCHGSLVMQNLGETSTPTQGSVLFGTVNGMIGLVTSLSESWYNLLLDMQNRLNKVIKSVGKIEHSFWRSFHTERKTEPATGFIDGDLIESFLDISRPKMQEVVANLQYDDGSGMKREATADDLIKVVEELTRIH
assay-notes: GSPT1 Cellular Degradation Assay (DF15-GSPT1-ePL)
Format: cell-based
Set-up: expressed in transfected cells
assay-conditions: DF15-GSPT1-ePL cells, 20 hours
Classify by measured Dmax: Yes if it is equal to or exceeds 20%, No if it is smaller.

Consider the worked cases shown below.
INSERT INTO assay_data (compound, group) VALUES
  ('COc1cc(Oc2cccc(F)c2)ccc1NC(=O)OCc1ccc2c(c1OC)C(=O)N(C1CCC(=O)NC1=O)C2 (centres unmarked)', 'Yes'),
  ('O=C1CCC(N2Cc3ccc(COC(=O)Nc4ccc(Oc5ccc(F)c(F)c5)cc4F)c(Oc4ccccc4)c3C2=O)C(=O)N1 (centres unmarked)', 'No'),
  ('COc1c(COC(=O)Nc2ccc(Oc3cccc(F)c3Cl)cc2)ccc2c1C(=O)N(C1CCC(=O)NC1=O)C2 (centres unmarked)', 'No'),
  ('O=C1CCC(N2Cc3ccc(COC(=O)Nc4ccc(Oc5ccc(F)cc5Cl)cc4)c(OC4CCC4)c3C2=O)C(=O)N1 (centres unmarked)', 'No'),
  ('CC(C)Oc1c(COC(=O)Nc2ccc(Oc3ccc(F)c(F)c3)cc2F)ccc2c1C(=O)N(C1CCC(=O)NC1=O)C2 (centres unmarked)', 'No');

query: Has COc1c(COC(=O)Nc2ccc(Oc3ccc(F)c(Cl)c3)cc2)ccc2c1C(=O)N(C1CCC(=O)NC1=O)C2 (centres unmarked) a recorded Dmax greater than or equal to 20%?
result: Yes

query: Has CC(C)Oc1c(COC(=O)Nc2ccc(Oc3ccc(F)cc3Cl)cc2)ccc2c1C(=O)N(C1CCC(=O)NC1=O)C2 (centres unmarked) a recorded Dmax greater than or equal to 20%?
result: No

query: Has CCOc1c(COC(=O)Nc2ccc(Oc3ccc(F)c(F)c3)cc2)ccc2c1C(=O)N(C1CCC(=O)NC1=O)C2 (centres unmarked) a recorded Dmax greater than or equal to 20%?
result: Yes

query: Has COc1c(COC(=O)Nc2ccc(Oc3cccc(Cl)c3Cl)cc2F)ccc2c1C(=O)N(C1CCC(=O)NC1=O)C2 (centres unmarked) a recorded Dmax greater than or equal to 20%?
result: Yes

query: Has CC(C)Oc1c(COC(=O)Nc2ccc(Oc3ccccc3Cl)cc2)ccc2c1C(=O)N(C1CCC(=O)NC1=O)C2 (centres unmarked) a recorded Dmax greater than or equal to 20%?
result: No

query: Has COC(=O)COc1c(COC(=O)Nc2ccc(Oc3ccc(F)c(F)c3)cc2)ccc2c1C(=O)N(C1CCC(=O)NC1=O)C2 (centres unmarked) a recorded Dmax greater than or equal to 20%?
result: No

query: Has O=C1CCC(N2Cc3ccc(COC(=O)Nc4ccc(Oc5ccccc5)cc4)c(O[C@@H]4CCCOC4)c3C2=O)C(=O)N1 (some centres unmarked) a recorded Dmax greater than or equal to 20%?
result: No

query: Has COc1c(COC(=O)Nc2ccc(Oc3cc(F)c(F)cc3Cl)cc2F)ccc2c1C(=O)N(C1CCC(=O)NC1=O)C2 (centres unmarked) a recorded Dmax greater than or equal to 20%?
result: Yes

query: Has O=C1CCC(N2Cc3ccc(COC(=O)Nc4ccc(Oc5ccccc5)cc4)c(Oc4ccccc4)c3C2=O)C(=O)N1 (centres unmarked) a recorded Dmax greater than or equal to 20%?
result: Yes
